measurement target: Dbp2 53-546 (Saccharomyces cerevisiae, UniProt P24783 53-546)
Sequence (P24783 53-546): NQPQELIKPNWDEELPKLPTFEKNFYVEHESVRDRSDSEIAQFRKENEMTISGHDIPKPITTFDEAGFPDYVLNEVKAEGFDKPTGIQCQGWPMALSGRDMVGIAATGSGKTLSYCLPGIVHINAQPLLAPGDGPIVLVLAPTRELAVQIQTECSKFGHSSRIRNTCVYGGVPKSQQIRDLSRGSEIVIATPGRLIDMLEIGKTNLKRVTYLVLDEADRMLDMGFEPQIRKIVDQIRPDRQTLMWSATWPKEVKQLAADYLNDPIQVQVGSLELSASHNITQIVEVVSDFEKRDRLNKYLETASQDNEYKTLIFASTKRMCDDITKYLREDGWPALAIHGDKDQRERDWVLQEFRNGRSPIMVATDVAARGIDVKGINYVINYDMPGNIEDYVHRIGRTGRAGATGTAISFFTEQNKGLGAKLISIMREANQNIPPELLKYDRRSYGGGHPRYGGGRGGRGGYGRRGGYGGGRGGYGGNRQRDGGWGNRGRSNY
protocol details: fluorescence anisotropy; Anisotropy: 25 mM Tris-HCl pH 7.5, 20 mM NaCl/30 mM KCl, 2 mM MgCl2, 1 mM DTT, 5 nM labelled nucleic acid, 25 C, 5 min; EMSA: 25 mM Tris-HCl pH 7.5, 30 mM KCl
test conditions: protein: recombinant; tags: His6-MBP removed by TEV; label: 3' FAM; G4
measured quantity: Kd (nM)
Please give a number only; it is taken to be in nM.

(Q) State the recorded Kd for this entry: GGGUUAGGGUUAGGGUUAGGG (structured_RNA) [R-G4Tel]
(A) 18.8
